System: B16-F0 melanoma cell line
RUN_DESCRIPTION: Melanin production suppressing activity in B16-F0 melanoma cells
Format: cell-based, mouse
RUN_CONDITIONS: 0.1 mM; three days with 2 mM theophylline
Each record here notes measured Melanin amount (% of control).
REPORTED_METRIC: Melanin amount (% of control)

[
  {
    "COMPOUND": "O=C(CCCCC1CC[S][Zn][S]1)NCCS(=O)(=O)[O-].[Na+] (centres unmarked)",
    "TESTED_SYSTEM": "B16-F0 melanoma cell line",
    "ASSAY_RESULT": "30.01 % of control"
  },
  {
    "COMPOUND": "CSCCC(NC(=O)CCCCC1CC[S][Zn][S]1)C(=O)O (centres unmarked)",
    "TESTED_SYSTEM": "B16-F0 melanoma cell line",
    "ASSAY_RESULT": "50.18 % of control"
  },
  {
    "COMPOUND": "O=C([O-])CCCNC(=O)CCCCC1CC[S][Zn][S]1.[Na+] (centres unmarked)",
    "TESTED_SYSTEM": "B16-F0 melanoma cell line",
    "ASSAY_RESULT": "29.20 % of control"
  },
  {
    "COMPOUND": "O=C([O-])CCCCCNC(=O)CCCCC1CC[S][Zn][S]1.[Na+] (centres unmarked)",
    "TESTED_SYSTEM": "B16-F0 melanoma cell line",
    "ASSAY_RESULT": "27.69 % of control"
  },
  {
    "COMPOUND": "OC[C@H]1O[C@@H](Oc2ccc(O)cc2)[C@H](O)[C@@H](O)[C@@H]1O [Arbutin, reference compound]",
    "TESTED_SYSTEM": "B16-F0 melanoma cell line",
    "ASSAY_RESULT": "97.29 % of control"
  },
  {
    "COMPOUND": "O=C(CCCCC1CC[S][Zn][S]1)Nc1ccccc1C(=O)[O-].[Na+] (centres unmarked)",
    "TESTED_SYSTEM": "B16-F0 melanoma cell line",
    "ASSAY_RESULT": "47.64 % of control"
  },
  {
    "COMPOUND": "O=C(CCCCC1CC[S][Zn][S]1)NC(Cc1ccccc1)C(=O)[O-].[Na+] (centres unmarked)",
    "TESTED_SYSTEM": "B16-F0 melanoma cell line",
    "ASSAY_RESULT": "37.78 % of control"
  },
  {
    "COMPOUND": "O=c1cc(CO)occ1O [Kojic acid, reference compound]",
    "TESTED_SYSTEM": "B16-F0 melanoma cell line",
    "ASSAY_RESULT": "92.70 % of control"
  }
]

###

Each record here notes measured Elastase inhibition rate (%).
Tested on: elastase
RUN_DESCRIPTION: Elastase inhibiting activity (Suc(Ome)-Ala-Ala-Pro-Val-MCA fluorescence)
Type: biochemical
RUN_CONDITIONS: 0.3 mM; 25° C., pH 7.5

[
  {
    "MOLECULE": "CC(C)C[C@H](NC(=O)N[C@H](C(=O)N[C@@H](CCC(N)=O)C(=O)N[C@@H](C)C=O)[C@@H]1CCNC(=N)N1)C(=O)O [Elastinal, reference compound]",
    "Elastase inhibition rate (%)": 77.45
  },
  {
    "MOLECULE": "O=C(CCCCC1CC[S][Zn][S]1)Nc1ccccc1C(=O)[O-].[Na+] (stereo not shown) [Example 8]",
    "Elastase inhibition rate (%)": 72.22
  },
  {
    "MOLECULE": "CSCCC(NC(=O)CCCCC1CC[S][Zn][S]1)C(=O)O (stereo not shown) [Example 9]",
    "Elastase inhibition rate (%)": 88.89
  },
  {
    "MOLECULE": "O=C(O)CCCCC1CCSS1 (stereo not drawn) [α-lipoic acid, reference compound]",
    "Elastase inhibition rate (%)": 10.29
  }
]

###

Tested on: elastase
RUN_DESCRIPTION: Elastase inhibiting activity (Suc(Ome)-Ala-Ala-Pro-Val-MCA fluorescence)
Type: biochemical
RUN_CONDITIONS: 0.03 mM; 25° C., pH 7.5
Hi, to clarify the labels: true covers Elastase inhibition rate (%) from 20% upward, false covers anything below 20%.

[
  {
    "COMPOUND": "O=C(CCCCC1CC[S][Zn][S]1)Nc1ccccc1C(=O)[O-].[Na+] (stereo not shown)",
    "CAT": "true"
  },
  {
    "COMPOUND": "CSCCC(NC(=O)CCCCC1CC[S][Zn][S]1)C(=O)O (stereo not shown)",
    "CAT": "false"
  },
  {
    "COMPOUND": "O=C([O-])CCCCCNC(=O)CCCCC1CC[S][Zn][S]1.[Na+] (stereo not shown)",
    "CAT": "true"
  },
  {
    "COMPOUND": "CC(C)C[C@H](NC(=O)N[C@H](C(=O)N[C@@H](CCC(N)=O)C(=O)N[C@@H](C)C=O)[C@@H]1CCNC(=N)N1)C(=O)O [Elastinal, reference compound]",
    "CAT": "true"
  },
  {
    "COMPOUND": "O=C([O-])CCCNC(=O)CCCCC1CC[S][Zn][S]1.[Na+] (stereo not shown)",
    "CAT": "true"
  },
  {
    "COMPOUND": "O=C(CCCCC1CC[S][Zn][S]1)NC(Cc1ccccc1)C(=O)[O-].[Na+] (stereo not shown)",
    "CAT": "true"
  },
  {
    "COMPOUND": "O=C(O)CCCCC1CCSS1 (stereo not drawn) [α-lipoic acid, reference compound]",
    "CAT": "false"
  }
]
